Where do the numbers come from? From patent US20260317324A1.

Reported values of Dmax for individual entries
- system-name: BRAF V600E (Homo sapiens, UniProt P15056, V600E)
- Construct: endogenous C-terminal HiBiT fusion tag on BRAF V600E allele; endogenous in cells; host or cells: A375 clone 1F10 (CRISPR-Cas9 knock-in of the HiBiT tag; parental A375 from ATCC)
- Sequence (P15056 whole entry V600E, the tested form may be a part): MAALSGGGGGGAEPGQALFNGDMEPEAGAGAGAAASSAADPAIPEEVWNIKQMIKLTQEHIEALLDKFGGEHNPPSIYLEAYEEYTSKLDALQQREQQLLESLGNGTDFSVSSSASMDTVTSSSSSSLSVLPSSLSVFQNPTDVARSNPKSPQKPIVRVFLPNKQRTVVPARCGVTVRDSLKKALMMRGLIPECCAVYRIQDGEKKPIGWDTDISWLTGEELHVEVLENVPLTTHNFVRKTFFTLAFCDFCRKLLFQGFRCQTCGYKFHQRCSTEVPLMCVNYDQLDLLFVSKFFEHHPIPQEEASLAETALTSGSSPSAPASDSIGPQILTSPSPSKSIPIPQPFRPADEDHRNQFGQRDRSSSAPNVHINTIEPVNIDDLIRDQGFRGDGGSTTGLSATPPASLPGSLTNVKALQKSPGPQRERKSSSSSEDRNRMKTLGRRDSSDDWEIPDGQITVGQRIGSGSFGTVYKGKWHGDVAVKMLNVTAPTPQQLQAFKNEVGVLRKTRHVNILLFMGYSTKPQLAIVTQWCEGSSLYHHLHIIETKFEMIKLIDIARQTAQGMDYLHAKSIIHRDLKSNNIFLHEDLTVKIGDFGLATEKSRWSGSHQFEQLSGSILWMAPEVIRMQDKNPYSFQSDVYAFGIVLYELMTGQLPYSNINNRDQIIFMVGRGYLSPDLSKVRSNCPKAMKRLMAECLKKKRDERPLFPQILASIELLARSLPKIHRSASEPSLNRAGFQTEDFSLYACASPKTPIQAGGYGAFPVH
- assay-remarks: BRAF HiBiT degradation assay, C-terminal HiBiT-tagged BRAF V600E A375 cells (clone 1F10), Nano-Glo HiBiT Lytic assay
- Format: cell-based
- cond: A-375; A375 (BRAF V600E); percentage protein degraded at maximal compound effect relative to DMSO
measure-name: Dmax

| compound | system-name | measure-name | assay-result |
| --- | --- | --- | --- |
| CCCS(=O)(=O)Nc1cccc(-c2nc(C3CCN(CC4CCN(C(=O)[C@H]5CC[C@H](Oc6ccc(C7CCC(=O)NC7=O)cc6)CC5)CC4)CC3)sc2-c2ccnc(N)n2)c1F (mixture of isomers) [Compound 224] | BRAF V600E (Homo sapiens, UniProt P15056, V600E) | Dmax | > 70% |
| CCCS(=O)(=O)Nc1cccc(-c2nc(C(C)(C)C)sc2-c2ccnc(Nc3cnn(CC4CCN(C(=O)CN5CCC(c6ccc(NC7CCC(=O)NC7=O)cc6)CC5)CC4)c3)n2)c1F (racemic) [Compound 116] | BRAF V600E (Homo sapiens, UniProt P15056, V600E) | Dmax | > 70% |
| CCCS(=O)(=O)Nc1cccc(-c2nc(C3CCN(C(=O)C4CCN(C(=O)C5CCN(c6ccc(C7CCC(=O)NC7=O)cn6)CC5)CC4)CC3)sc2-c2ccnc(NC3CC3)n2)c1F (racemic) [Compound 198] | BRAF V600E (Homo sapiens, UniProt P15056, V600E) | Dmax | > 70% |
| CCCS(=O)(=O)Nc1cccc(-c2nc(C(C)(C)C)sc2-c2ccnc(Nc3cccc(OC4CCN(C(=O)C5CCN(c6cccc(C7CCC(=O)NC7=O)c6)CC5)CC4)c3)n2)c1F (racemic) [Compound 99] | BRAF V600E (Homo sapiens, UniProt P15056, V600E) | Dmax | 30 to 70% |
| CCCS(=O)(=O)Nc1cccc(-c2nc(C(C)(C)C)sc2-c2ccnc(Nc3cnn(C4CCN(C(=O)[C@@H]5CCN(c6ccc(C7CCC(=O)NC7=O)cn6)C5)CC4)c3)n2)c1F (mixture of isomers) [Compound 106] | BRAF V600E (Homo sapiens, UniProt P15056, V600E) | Dmax | 30 to 70% |
| CCCS(=O)(=O)Nc1cccc(-c2nc(C(C)(C)C)sc2-c2ccnc(Nc3cccc(OC4CCN(C[C@H]5CC[C@H](Oc6ccc(C7CCC(=O)NC7=O)cc6)CC5)CC4)c3)n2)c1F (mixture of isomers) [Compound 72] | BRAF V600E (Homo sapiens, UniProt P15056, V600E) | Dmax | 30 to 70% |
| CCCS(=O)(=O)Nc1cccc(-c2nc(C3CCN(C(=O)CN4CCN(c5ccc6c(c5)C(=O)N(C5CCC(=O)NC5=O)C6=O)CC4)CC3)sc2-c2ccnc(N)n2)c1F (racemic) [Compound 233] | BRAF V600E (Homo sapiens, UniProt P15056, V600E) | Dmax | 30 to 70% |
| CCCS(=O)(=O)Nc1cccc(-c2cn(-c3ccc(N4CCN(CC5CCN(c6ccc(C7CCC(=O)NC7=O)cc6F)CC5)CC4)cc3)nc2-c2ccncc2)c1F (racemic) [Compound 18] | BRAF V600E (Homo sapiens, UniProt P15056, V600E) | Dmax | > 70% |
| CCCS(=O)(=O)Nc1cccc(-c2nc(C(C)(C)C)sc2-c2ccnc(Nc3ccc(C4CCN(C(=O)C[C@@H]5CCN(c6ccc7c(c6)n(C)c(=O)n7C6CCC(=O)NC6=O)C5)CC4)cc3)n2)c1F (mixture of isomers) [Compound 162] | BRAF V600E (Homo sapiens, UniProt P15056, V600E) | Dmax | 30 to 70% |
| CCCS(=O)(=O)Nc1cccc(-c2nc(C(C)(C)C)sc2-c2ccnc(Nc3cccc(C4CCN(CC5CCN(c6ccc7c(=O)n(C8CCC(=O)NC8=O)ccc7c6)CC5)CC4)c3)n2)c1F (racemic) [Compound 76] | BRAF V600E (Homo sapiens, UniProt P15056, V600E) | Dmax | 30 to 70% |
| CCCS(=O)(=O)Nc1cccc(-c2nc(C(C)(C)C)sc2-c2ccnc(Nc3cnn(C4CCN(CC5CCN(c6ccc(C(=O)N[C@@H]7CCC(=O)NC7=O)nc6)CC5)CC4)c3)n2)c1F [Compound 67] | BRAF V600E (Homo sapiens, UniProt P15056, V600E) | Dmax | 30 to 70% |
| CCCS(=O)(=O)Nc1cccc(-c2nc(C(C)(C)C)sc2-c2ccnc(Nc3ccc(C4CCN(CC5CCN(c6ccc(C(=O)NC7CCC(=O)NC7=O)cc6)CC5)CC4)cc3)n2)c1F (racemic) [Compound 171] | BRAF V600E (Homo sapiens, UniProt P15056, V600E) | Dmax | 30 to 70% |
| CCN(C)S(=O)(=O)Nc1cccc(-c2nc(C(C)(C)C)sc2-c2ccnc(Nc3ccc(N4CCN(CC5CCN(c6ccc([C@H]7CCC(=O)NC7=O)cc6)CC5)CC4)cn3)n2)c1F [Compound 128] | BRAF V600E (Homo sapiens, UniProt P15056, V600E) | Dmax | > 70% |
| CCCS(=O)(=O)Nc1cccc(-c2nc(C(C)(C)C)sc2-c2ccnc(Nc3cccc(OC4CCN(CC[C@H]5CCN(c6ccc(C7CCC(=O)NC7=O)cn6)C5)CC4)c3)n2)c1F (mixture of isomers) [Compound 69] | BRAF V600E (Homo sapiens, UniProt P15056, V600E) | Dmax | > 70% |
| CCCS(=O)(=O)Nc1cccc(-c2nc(C3CCN(C(=O)C4(C)CCN(C(=O)C5CCN(c6ccc(C7CCC(=O)NC7=O)cn6)CC5)CC4)CC3)sc2-c2ccncc2)c1F (racemic) [Compound 182] | BRAF V600E (Homo sapiens, UniProt P15056, V600E) | Dmax | > 70% |
| CCCS(=O)(=O)Nc1cccc(-c2nc(C(C)(C)C)sc2-c2ccnc(Nc3ccc(C4CCN(C(=O)C5CCN(CC6CCN(c7ccc(C8CCC(=O)NC8=O)cn7)CC6)CC5)CC4)cc3)n2)c1F (racemic) [Compound 175] | BRAF V600E (Homo sapiens, UniProt P15056, V600E) | Dmax | 30 to 70% |
| CCCS(=O)(=O)Nc1cccc(-c2nc(C3CCN(CC4CCN(C(=O)C5CCN(c6ccc(C7CCC(=O)NC7=O)cn6)CC5)CC4)CC3)sc2-c2ccnc(N)n2)c1F (racemic) [Compound 213] | BRAF V600E (Homo sapiens, UniProt P15056, V600E) | Dmax | > 70% |
